- ASSAY TEXT: Toxicity liver stage against HepG2, at 10uM
- Assay type: cell-based
- Design: test concentration 10 uM, cell line HepG2-A16-CD81EGFP
- RUN PARAMETERS: human, HepG2-A16-CD81EGFP cells; read-out: INHIBITION
RECORDED ENDPOINT: cytotoxicity at 10 µM (%)

INSERT INTO results (compound, recorded_endpoint, recorded_number) VALUES
  ('CN1C[C@H]2CC[C@@H](CC1=O)N2C(=O)c1cc2ccccc2[nH]c1=O', 'cytotoxicity at 10 µM', -7.66),
  ('Cc1cnn(CC(C)NCc2ccc(C#N)cc2)c1 (stereo unspecified)', 'cytotoxicity at 10 µM', -11.8),
  ('COCCN(Cc1ccoc1)C(=O)CSc1ccc(F)cc1', 'cytotoxicity at 10 µM', 1.04),
  ('Cc1oc(-c2ccco2)nc1CN1CCCC(Cn2cncn2)C1 (stereo unspecified)', 'cytotoxicity at 10 µM', -23.5),
  ('Cc1cnc(CN2CCN(C(C)c3nc(C(C)C)no3)CC2)cn1 (stereo unspecified)', 'cytotoxicity at 10 µM', 9.74),
  ('CCc1c(C(=O)N2CCC3(CCCN(CCO)C3=O)C2)csc1C (stereo unspecified)', 'cytotoxicity at 10 µM', -128);

====

Overview of recorded cytotoxicity at 10 µM for various molecules
- ASSAY TEXT: Toxicity liver stage against HepG2, at 10uM
- Format: cell-based
- Parameters: test concentration 10 uM, cell line HepG2-A16-CD81EGFP
- RUN PARAMETERS: human, HepG2-A16-CD81EGFP cells; read-out: INHIBITION
RECORDED ENDPOINT: cytotoxicity at 10 µM (%)

INSERT INTO measurements (molecule, recorded_endpoint, value_unit, recorded_number) VALUES
  ('Cc1nc(CN2CCCC(N(C)Cc3nc(C)c(C)o3)C2)no1 (stereo unspecified)', 'cytotoxicity at 10 µM', '%', -6.6),
  ('CCc1oc2ccc(NS(=O)(=O)CC)cc2c1C(=O)OC', 'cytotoxicity at 10 µM', '%', 5.05),
  ('CC(=O)NCCCSC1CCN(c2c(F)cccc2F)C1=O (stereo unspecified)', 'cytotoxicity at 10 µM', '%', -6.35),
  ('CC(C)N(C)C(=O)C1CCN(Cc2cnc3ccccn23)CC1', 'cytotoxicity at 10 µM', '%', 27.5),
  ('Cc1cc(C)n(CC2CCCCN2C(=O)c2cnn(C)c2)n1 (stereo unspecified)', 'cytotoxicity at 10 µM', '%', 6.79),
  ('CCNC(=O)NC(=O)CNC1(c2noc(C)n2)CCCCC1', 'cytotoxicity at 10 µM', '%', -1.3),
  ('NC(=O)CN1CCCC(C(=O)N2CCC(O)(c3ccccc3)CC2)C1 (stereo unspecified)', 'cytotoxicity at 10 µM', '%', -7.55),
  ('CCc1nc(C)c([C@H]2CN(C)C[C@@H]2C(=O)NCCc2cnccn2)[nH]1', 'cytotoxicity at 10 µM', '%', -9.52),
  ('CN1[C@@H](c2ccccc2)[C@@H](C(=O)NCc2ccncc2)C[C@@]1(C)C(=O)O', 'cytotoxicity at 10 µM', '%', -40.6),
  ('CC(C)c1ncncc1C(=O)N1CCN(Cc2cccnc2)CC1', 'cytotoxicity at 10 µM', '%', -5.85),
  ('CSCC[C@H](NC(C)=O)C(=O)N(C)Cc1ccc(-n2cccn2)cc1', 'cytotoxicity at 10 µM', '%', -122);

====

The following molecules are shown together with reported cytotoxicity at 10 µM values.
- ASSAY TEXT: Toxicity liver stage against HepG2, at 10uM
- Format: cell-based
- Parameters: test concentration 10 uM, cell line HepG2-A16-CD81EGFP
- RUN PARAMETERS: human, HepG2-A16-CD81EGFP cells; read-out: INHIBITION
RECORDED ENDPOINT: cytotoxicity at 10 µM (%)

INSERT INTO results (molecule, recorded_number) VALUES
  ('CCS(=O)(=O)N1C[C@@H]2C[C@H](C(=O)N(C)C)[C@H](C1)O2', 5.58),
  ('CC1CN(Cc2ccc(-n3cccn3)cc2)CCO1 (centres undefined)', -7.18),
  ('O=C(O)[C@@H]1CN(C(=O)c2cc(C3CC3)n[nH]2)C[C@H]1c1cccc(F)c1', -9),
  ('COc1ccncc1NC(=O)c1[nH]nc(C(C)C)c1Br', 4.04),
  ('CC(=O)Nc1nc(CN2CCCC2c2cnn(C)c2)cs1 (centres undefined)', -11.8),
  ('Cc1cc(C)n(CC2CCCCN2Cc2cscn2)n1 (centres undefined)', 1.78),
  ('O=C1CO[C@@H]2CN(C3CCOCC3)C[C@H]2N1Cc1ccncc1', -151),
  ('c1c(CN2CCCC2)nc2n1CCN(CC1CC1)C2', -136),
  ('COc1ncccc1CNC(=O)NCCNS(C)(=O)=O', -14.4),
  ('COCCNc1nc2c(c(NCc3cnc(C)cn3)n1)CCNCC2', -0.106),
  ('Cc1noc(C)c1CNCC1COCc2c(-c3ccsc3)nnn2C1 (centres undefined)', 5.74),
  ('CSCC(=O)N[C@H]1CC[C@H](Nc2nccc(-c3ccncc3)n2)C1', 11.8),
  ('Cc1nc(-c2ccccc2)cc(C2CCNCC2)n1', 3.78),
  ('Cn1cccc1C(=O)N1C[C@@H]2C[C@@H](c3nnc(C4CC4)o3)O[C@@H]2C1', -112),
  ('CC(C)(C)CNS(=O)(=O)C1CS(=O)(=O)c2ccccc21 (centres undefined)', 14.3),
  ('O=C(CCc1ccsc1)Nc1cccnc1N1CCCC1', -7.07),
  ('COC(CNC(=O)c1ccoc1)c1cccc(Cl)c1 (centres undefined)', 3.3),
  ('O=c1c(NCc2ccncc2)c(NCC(O)CN2CCOCC2)c1=O (centres undefined)', -44),
  ('CCc1n[nH]c(C2CN(C(=O)c3csnn3)CCO2)n1 (centres undefined)', -2.5),
  ('Cc1ncc2c(n1)CN(CCCc1ccccc1)CC2', -34.7),
  ('CN(Cc1nc(C2CC2)no1)C1CCS(=O)(=O)C1 (centres undefined)', 13.2),
  ('COCCCC1(C(=O)O)CCCN(C(=O)c2ccc(Cl)cc2F)C1 (centres undefined)', -0.37),
  ('CN(C)[C@@H]1CO[C@H](CNC(=O)c2cccs2)[C@H]1O', -1.37),
  ('Cc1nn(C)cc1S(=O)(=O)N[C@@H]1CCC[C@@H](n2ccnc2)[C@@H]1O', 0.651);

====

Catalogue of cytotoxicity at 10 µM readings, one per entry.
- ASSAY TEXT: Toxicity liver stage against HepG2, at 10uM
- Assay type: cell-based
- Design: test concentration 10 uM, cell line HepG2-A16-CD81EGFP
- RUN PARAMETERS: human, HepG2-A16-CD81EGFP cells; read-out: INHIBITION
RECORDED ENDPOINT: cytotoxicity at 10 µM (%)

INSERT INTO measurements (compound, recorded_endpoint, value_unit, recorded_number) VALUES
  ('COC1(CNC(=O)NCCc2ccccc2)CCSC1 (stereo unspecified)', 'cytotoxicity at 10 µM', '%', -12.6),
  ('CCOc1ccc(S(=O)(=O)N(CCOC)Cc2ccncc2)cc1F', 'cytotoxicity at 10 µM', '%', 52.2),
  ('COC1C[C@@H]2CN(C(=O)Cc3ccc(C)s3)C[C@@H]2C1 (stereo partly specified)', 'cytotoxicity at 10 µM', '%', 3.53),
  ('Cc1cccc(-c2nc(C)nn2CN2CCC3(CC2)OCCO3)c1', 'cytotoxicity at 10 µM', '%', -13.8),
  ('O=C(c1ncn2c1CNS(=O)(=O)c1ccccc1-2)N1CCOCC1', 'cytotoxicity at 10 µM', '%', 8.28),
  ('Cc1ccc(CCN[C@@H]2c3ccccc3C3(CCNCC3)[C@H]2O)s1', 'cytotoxicity at 10 µM', '%', -2.72),
  ('COCCOc1ccc(S(=O)(=O)Nc2cccc(O)c2F)cc1C', 'cytotoxicity at 10 µM', '%', 27.7),
  ('CCN(CC)C(=O)CCc1c(C)nc2cc(O)nn2c1C', 'cytotoxicity at 10 µM', '%', 0.33),
  ('O=C(C1CCC1)N1CCN(c2snc3ccccc23)CC1', 'cytotoxicity at 10 µM', '%', 11.2),
  ('CC(=O)N1CC[C@H]2OCC[C@@]2(C(=O)NCc2cnc(C)cn2)C1', 'cytotoxicity at 10 µM', '%', -106),
  ('COc1ccccc1CN(CCCn1ccnc1)CC1CCOC1 (stereo unspecified)', 'cytotoxicity at 10 µM', '%', 11);

====

- ASSAY TEXT: Toxicity liver stage against HepG2, at 10uM
- Assay type: cell-based
- Parameters: test concentration 10 uM, cell line HepG2-A16-CD81EGFP
- RUN PARAMETERS: human, HepG2-A16-CD81EGFP cells; read-out: INHIBITION
RECORDED ENDPOINT: cytotoxicity at 10 µM (%)

INSERT INTO assay_data (compound, recorded_endpoint, value_unit, recorded_number) VALUES
  ('Cc1cc(-n2cncn2)ccc1C(=O)Nc1ccc(N2CCCC2)cn1', 'cytotoxicity at 10 µM', '%', 7.26),
  ('CN(C)Cc1nn(C)c2c1CCN(S(=O)(=O)c1cccs1)C2', 'cytotoxicity at 10 µM', '%', 4.52),
  ('O=C(Cc1ccc(F)cc1)N1CCCC(c2n[nH]c3nccnc23)C1 (stereo unspecified)', 'cytotoxicity at 10 µM', '%', 4.59),
  ('CC(C)(C)CCNc1nccc(-c2c[nH][nH]c2=O)n1', 'cytotoxicity at 10 µM', '%', -5.25),
  ('CCS(=O)(=O)CCNC(=O)NC(C)c1cc(C)sc1C (stereo unspecified)', 'cytotoxicity at 10 µM', '%', -3.4),
  ('CN(C)c1ccccc1CN1CCCC(N2CCCC2=O)C1 (stereo unspecified)', 'cytotoxicity at 10 µM', '%', -9.13),
  ('CCC(CC)c1cc(CNC(=O)N2CCCC(C(=O)NC)C2)on1 (stereo unspecified)', 'cytotoxicity at 10 µM', '%', -18.6),
  ('CC(C)=CCN1CCN(C(=O)COc2ccccc2)[C@H]2CS(=O)(=O)C[C@H]21', 'cytotoxicity at 10 µM', '%', -1.64),
  ('CCOc1ccc(NC(=O)CN2CCN(c3nccn3C)CC2)cc1', 'cytotoxicity at 10 µM', '%', 4.05),
  ('CCOCc1ncn2c1CN(C(=O)Nc1ccc(CC)cc1)CC2', 'cytotoxicity at 10 µM', '%', 5.96),
  ('Clc1ccc2nc(N3CCC(NCCCC4CCOC4)CC3)sc2c1 (stereo unspecified)', 'cytotoxicity at 10 µM', '%', 4.1);
